- ASSAY_NOTES: chemical genetic growth profiling, strain panel (AID 1159580);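 further: tested at 20 µM; growth read once vehicle control cultures reached saturation at 30 °C; 1 = growth at the plate median or of vehicle wells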
- TEST_CONTEXT: S. cerevisiae deletion strains, growth OD, locus YLR262C, strain YPT6, stronger effect = lower value
Screen size: about 5,500 compounds; about 2,000 (36%) were called active. About 18% were inconclusive and are not listed. The list shows a part of the results.
normalized growth strictly under 1 means MET; at 1 or over means NOT MET.

Known results for molecules:
Bench note: check whether N#CC(O[C@@H]1O[C@H](CO[C@@H]2O[C@H](CO)[C@@H](O)[C@H](O)[C@H]2O)[C@@H](O)[C@H](O)[C@H]1O)c1ccccc1 (some centres undefined) shows normalized growth below 1 NOT MET

Consider the molecule Cc1csc2ccc(Cl)cc12 . Is its normalized growth strictly less than 1? NOT MET

Lab note: normalized growth threshold 1. Does this molecule come in strictly under it? CS/C(N)=N\N=C/c1c(F)cccc1Cl NOT MET

In plain terms, does Cc1cc(C(C)(C)C)c(O)c(C(C)(C)C)c1 come in under 1 for normalized growth? MET

Identify whether the molecule CC(C)=CCCC1(C)C=Cc2c(O)c3c(c(CC=C(C)C)c2O1)OC12C(=CC4CC1C(C)(C)OC2(C/C=C(/C)C(=O)O)C4=O)C3=O (centres undefined) records normalized growth below 1. MET

Next:
Does the reported normalized growth of the following molecule sit strictly below 1? COc1ccc2c(c1)c(CC(=O)OCC(=O)O)c(C)n2C(=O)c1ccc(Cl)cc1 NOT MET

Record CC(C)=CCCC1(C)C=Cc2c(O)c3c(c(CC=C(C)C)c2O1)OC12C(=CC4CC1C(C)(C)OC2(C/C=C(\C)C(N)=O)C4=O)C3=O (centres undefined) : is its normalized growth strictly below 1? MET

###

In this section, each of the compounds is paired with its reported normalized growth.
- ASSAY_NOTES: chemical genetic growth profiling, strain panel (AID 1159580);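 further: tested at 20 µM; growth read once vehicle control cultures reached saturation at 30 °C; 1 = growth at the plate median or of vehicle wells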
- TEST_CONTEXT: S. cerevisiae deletion strains, growth OD, locus YMR078C, strain ctf18, stronger effect = lower value
Screen size: about 5,500 compounds; about 2,000 (36%) were called active. Inconclusive results (about 18%) are left out. The list shows a part of the results. Where a SMILES comes first, the peptide text is derived from it. The star is where a group is joined. For = O=C*

Measured normalized growth, COC(=O)C[C@H]1C(C)(C)C2(O)OC34CC2C(=O)[C@]1(C)C3CC[C@]1(C)C4=CC(=O)O[C@H]1c1ccoc1 (stereo not given in full) : 1.01 (inactive)

The compound identified as CC(=O)Nc1ccc(OCC(O)CNC(C)C)cc1 (stereo not given) registered its normalized growth at 1 (inactive)

Further cases:
Form field normalized growth, entry C/C=C1\[C@H]2C=C(C)C[C@]1(N)c1ccc(=O)[nH]c1C2 : 1.02 (inactive)

Lab note: CC(=O)OC1CC[C@@]2(C)C(CC[C@]3(C)C2CCC2C4CC(C)(C)CCC4(C(=O)O)CC[C@]23C)C1(C)C (stereo not given in full) gave normalized growth of 0.968 (inactive)

Reported normalized growth for CSCCC(NC=O)C(=O)NC(Cc1ccccc1)C(=O)O (stereo not drawn) (For-Met-Phe-OH; configuration not given here) was 1.01 (inactive)

###

- ASSAY_NOTES: chemical genetic growth profiling, strain panel (AID 1159580);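 further: tested at 20 µM; growth read once vehicle control cultures reached saturation at 30 °C; 1 = growth at the plate median or of vehicle wells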
- TEST_CONTEXT: S. cerevisiae deletion strains, growth OD, locus YJR066W, strain TOR1
The whole screen tested about 5,500 compounds, of which about 2,000 (36%) were called active. Another 18% or so got no clear call; they are omitted. No stated cut-off is given here; in the data, active means normalized growth mostly below about 0.91 (no sharp cut-off); inconclusive means no clear call, values can overlap the other calls; inactive means mostly above about 0.92. The list shows a part of the results.
API: response.call in active, inactive

Solved cases (5 shown):
Record request — test call for N#CC(O[C@@H]1O[C@H](CO[C@@H]2O[C@H](CO)[C@@H](O)[C@H](O)[C@H]2O)[C@@H](O)[C@H](O)[C@H]1O)c1ccccc1 (stereo partly drawn) inactive

Returns: the outcome recorded for Cc1cc(O)cc(O)c1C(=O)O in this assay. inactive

Could you please tell me the result logged for O=C(COc1ccc(Cl)cc1)N1CCN(Cc2ccc3c(c2)OCO3)CC1 in this assay? inactive

Tell me the recorded outcome of this test for CC(=O)NCc1c(I)c(NC(C)=O)c(I)c(C(=O)O)c1I . inactive

Can you look up the reported call for Nc1c2ccccc2nc2ccccc12 for me? active

---
Outcome logged for CCOc1ccc2nc3cc(N)ccc3c(N)c2c1 in this assay: inactive

Can you look up the reported call for O=C1C(O)=C(O)C(=O)C(O)=C1O for me? inactive

Hello, I am checking results. What call was entered for COc1cccc2c1C(=O)c1c(O)c3c(c(O)c1C2=O)C[C@@](O)(C(=O)CO)C[C@@H]3OC1C[C@H](N)[C@H](O)[C@H](C)O1 (stereo partly drawn) ? active

Lab log entry: Cc1cc(O)cc(C)c1Cl — outcome as called in the assay? inactive

What was the test verdict on Cc1cc(O)ccc1Cl ? inactive

Could you please tell me the result logged for CC(C)(Sc1cc(C(C)(C)C)c(O)c(C(C)(C)C)c1)Sc1cc(C(C)(C)C)c(O)c(C(C)(C)C)c1 in this assay? inactive

Assay result, entry COc1ccc2c3c([nH]c2c1)C(C)=NCC3 — outcome? inactive

Any idea what this test logged for O=S(=O)(c1ccc(Cl)cc1)N(Cc1cccnc1)Cc1ccc(Cl)cc1Cl ? active
